Test System: T1, human factor X (human, UniProt P00742 41-179; P00742 183-488)
T1 construct: Zymogen used as analyte in SPR; also called FX; Human FX (MW ~58 KDa)
T1 sequence (P00742 41-179, chain 1 of 2): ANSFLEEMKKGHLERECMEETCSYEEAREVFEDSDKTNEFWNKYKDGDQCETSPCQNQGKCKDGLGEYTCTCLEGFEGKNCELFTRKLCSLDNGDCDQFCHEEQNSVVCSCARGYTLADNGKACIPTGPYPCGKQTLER
T1 sequence (P00742 183-488, chain 2 of 2): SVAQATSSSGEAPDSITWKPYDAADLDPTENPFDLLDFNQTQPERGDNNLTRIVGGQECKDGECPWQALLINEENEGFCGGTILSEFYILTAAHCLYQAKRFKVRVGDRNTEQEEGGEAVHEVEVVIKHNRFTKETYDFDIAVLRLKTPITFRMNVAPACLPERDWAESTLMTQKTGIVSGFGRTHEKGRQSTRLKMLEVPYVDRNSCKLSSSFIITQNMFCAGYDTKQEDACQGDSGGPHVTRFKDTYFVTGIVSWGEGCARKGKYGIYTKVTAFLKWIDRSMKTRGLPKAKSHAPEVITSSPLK
Assay Notes: SPR as in Example 10, human FX as analyte
kon for assorted binders
Your answer is read as M⁻¹ s⁻¹, so omit the unit and give the number.

The examples below pair each entry with its known result.
[[record]]
binder = "TINA-0666.0128 (antibody, V domains shown, Monospecific IgG) VH: QVQLIQSGAEVKKPGASVKVSCKASRYSFTSYYMHWVRQAPGQGLEWMGIINPKSGSTSYAQKFQGRVTMTRDTSTSTVYMELSSLRSEDTAVYYCARDGYGSSSRIIQLWGQGTLVTVSS VL: SYVLTQPPSVSVAPGETARITCGGDNIGRKSVYWYQQKSGQAPVLVIYYDSDRPSGIPERFSGSNSGNTATLTISRVEAGDEADYYCQVWDGSSDHWVFGGGTKLTVL"
measured_endpoint = "kon"
unit_text = "M⁻¹ s⁻¹"
endpoint_value = 44900

[[record]]
binder = "TINA-0201.0128 (antibody, V domains shown, Monospecific IgG4PE) VH: QVQLIQSGAEVKKPGASVKVSCKASRYSFTSYYMHWVRQAPGQGLEWMGIINPKSGSTSYAQKFQGRVTMTRDTSTSTVYMELSSLRSEDTAVYYCARDGYGSSSRCLQLWGQGTLVTVSS VL: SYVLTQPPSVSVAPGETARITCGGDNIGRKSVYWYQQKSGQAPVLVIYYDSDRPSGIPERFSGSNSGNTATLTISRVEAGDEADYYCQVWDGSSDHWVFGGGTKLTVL"
measured_endpoint = "kon"
unit_text = "M⁻¹ s⁻¹"
endpoint_value = 59000


Look up and report measured kon for this entry: TINA-0616.0128 (antibody, V domains shown, Monospecific IgG; position is IMGT numbering, not a count on the entry) VH: QVQLIQSGAEVKKPGASVKVSCKASRYSFTSYYMHWVRQAPGQGLEWMGIINPKSGSTSYAQKFQGRVTMTRDTSTSTVYMELSSLRSEDTAVYYCARDGYGSSSRCIQLWGQGTLVTVSS VL: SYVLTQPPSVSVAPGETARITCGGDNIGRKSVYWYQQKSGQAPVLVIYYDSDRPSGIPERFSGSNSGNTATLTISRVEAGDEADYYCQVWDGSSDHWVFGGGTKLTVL 41900
